Details: in ethyl acetate, 333.15 K
Attribute measured: solubility (mole fraction)
Answer with the value's number alone.

I would be grateful if you could share the reported solubility (mole fraction) for COc1ccc2nc(S(=O)Cc3ncc(C)c(OC)c3C)[nH]c2c1 (stereo unspecified) .
0.00523

====

Conditions: in ethyl acetate, 328.15 K
Attribute measured: solubility (mole fraction)
Answer with the value's number alone.

I would be grateful if you could share the reported solubility (mole fraction) for COc1ccc2nc(S(=O)Cc3ncc(C)c(OC)c3C)[nH]c2c1 (stereo unspecified) .
0.0047

====

Conditions: in ethyl acetate, 308.15 K
Attribute measured: solubility (mole fraction)
Answer with the value's number alone.

I would be grateful if you could share the reported solubility (mole fraction) for COc1ccc2nc(S(=O)Cc3ncc(C)c(OC)c3C)[nH]c2c1 (stereo unspecified) .
0.00253
